- System: 188146-221-R-J1-PDC complex spheroid viability;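 note: spheroids exposed to compounds for seven days; 100% = DMSO vehicle control viability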
- assay: Anticancer human tumor 188146-221-R-J1-PDC patient-derived colon adenocarcinoma cell line growth inhibition [POLQ]
- experimental-setup: second compound 0.1 µM; first compound 0.1 µM; hits give low values
# viability, T/C listing for each entry below
Supply the numeric figure in %, leaving out any unit text.

COc1cc(C2c3cc4c(cc3C(OC3OC5COC(C)OC5C(O)C3O)C3COC(=O)C23)OCO4)cc(OC)c1O (stereo not drawn) + Nc1ccc(C#CCN(C(=O)Cc2ncc(C(F)(F)F)cc2C(F)(F)F)c2ccc(F)cc2)nn1 :: 87.3
COc1cc(C2c3cc4c(cc3C(OC3OC5COC(C)OC5C(O)C3O)C3COC(=O)C23)OCO4)cc(OC)c1O (stereo not drawn) + Cc1cccc(N(C)C(=O)C2C(O)CCN2c2nc(C)cc(C(F)(F)F)c2C#N)c1 :: 99.2

Next item in the queue.
Param item = CCc1cc2c(N3CCc4c(cc(Cn5ccnc5)cc4-c4cn(C)nc4C(F)(F)F)C3=O)ccnc2c(OC)n1 + Cc1cccc(N(C)C(=O)C2C(O)CCN2c2nc(C)cc(C(F)(F)F)c2C#N)c1 ; retrieve measured viability, T/C. 78.8
